# Test protocol: NCI Yeast Anticancer Drug Screen. Data for the sgs1 mgt1 strain (AID 161);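 further: 0% = growth of cultures given vehicle only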
# Condition context: S. cerevisiae sgs1 mgt1 strain, at 50.0 µM (retest, dose inferred, filed as 5.0)
About 79,000 compounds went through this panel and 15% of them were active in at least one assay; those are over-represented in the sample as a whole. Active and inactive are the calls of the source. No stated cut-off is given here; in the data, active means growth inhibition above about 70%; inactive means the rest.
Your reply should match one of these outcome classes. active, inactive

O=C1C=CC(=O)C1(Br)Br
active

Query :: Hello, I am checking results. What call was entered for CC(=O)Nc1ccccc1[As](O[As](c1ccccc1)c1ccccc1NC(C)=O)c1ccccc1 (stereo not drawn) ?
Result :: active

Query :: Another molecule to check: CCC1(O)C(=O)OCc2c1cc1n(c2=O)Cc2cc3cc(Cl)ccc3nc2-1 (stereo not drawn)
Result :: active

Query :: Another molecule to check: Cc1cc(C)c(O)c(C)c1.[Hg]
Result :: active

Query :: Another molecule to check: CCc1cc2c(cc1-c1csc(C/C(N)=N/O)n1)C(C)(C)CCC2(C)C
Result :: active

Query :: Another molecule to check: CCCCCCC1CC2(Cl)C(Cl)=C(Cl)C1(Cl)C2(Cl)Cl (stereo not drawn)
Result :: active

Query :: Another molecule to check: CCC1(OC(=O)CN)C(=O)OCc2c1cc1n(c2=O)Cc2cc3ccccc3nc2-1 (stereo not drawn)
Result :: active

Query :: Another molecule to check: C[C@]12CC[C@H](O)CC1=CC[C@@H]1[C@@H]2CC[C@]2(C)C(=O)CC[C@@H]12
Result :: active

Query :: Another molecule to check: [Cl][Pt+2][Cl].[NH-]C1CCCC2CCC[N-]C12 (stereo not drawn)
Result :: active

Query :: Another molecule to check: CCCCC1C(=O)NC(=S)N(c2ccccc2)C1=O (stereo not drawn)
Result :: inactive

Query :: Another molecule to check: O=[N+]([O-])c1ccc2c[n+]3ccccc3cc2c1
Result :: inactive

Query :: Another molecule to check: NC(=O)/C=C/C(=O)O (tested in a mixture with another compound)
Result :: inactive

Query :: Another molecule to check: CC12CCC(C)(c3cc(O)c(O)cc31)c1cc(O)c(O)cc12
Result :: inactive

Query :: Another molecule to check: CC12CCC(C1)C(C)(C)C2OC(=O)c1ccccc1N (stereo not drawn)
Result :: inactive

Query :: Another molecule to check: CCOC(=O)C(NC(=O)C(Cc1ccc(N(CCCl)CCCl)cc1)NC(C)=O)C(C)C (stereo not drawn)
Result :: inactive

----------
# Test protocol: NCI Yeast Anticancer Drug Screen. Data for the wt1 strain (AID 149);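 further: 0% = growth of vehicle-treated wt1 cultures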
# Condition context: S. cerevisiae wt1 strain (SPY 50644) growth inhibition; at 3.7 µM; stronger effect = higher value
The panel holds about 79,000 compounds, 15% with a hit somewhere; the sample as a whole holds those more often.
Quantity measured: growth inhibition (%)
Answers are plain numbers, in %.

Oc1cccnc1[Se]
-3
COc1cc([C@@H]2c3cc4c(cc3C[C@@H]3COC(=O)C32)OCO4)cc(OC)c1O (some centres undefined)
34

// for each molecule below, give its growth inhibition
1. CCC1(OC(=O)CN)C(=O)OCc2c1cc1n(c2=O)Cc2cc3ccccc3nc2-1 (centres undefined)
2. [O-][n+]1c2cccc(O)c2[n+]([O-])c2cccc(O)c21
3. O=c1oc2ccccc2c(O)c1C(c1ccc2c(c1)Cc1ccccc1-2)c1c(O)c2ccccc2oc1=O
4. COC(=O)C(F)C(Br)C(=O)OC (centres undefined)

Result ::
[4, 2, -5, 74]

// for each molecule below, give its growth inhibition
1. O=c1c2ccccc2[se]n1-c1cccnc1
2. Nc1nnc(N)n1-n1c(N)nnc1N
3. Cc1c(N)nc([C@H](CC(N)=O)NC[C@H](N)C(N)=O)nc1C(=O)N[C@H](C(=O)N[C@H](C)[C@@H](O)[C@H](C)C(=O)N[C@H](C(=O)NCCc1nc(-c2nc(C(=O)NCCC[S+](C)C)cs2)cs1)[C@@H](C)O)C(OC1OC(CO)C(O)C(O)C1OC1OC(CO)C(O)C(OC(N)=O)C1O)c1cnc[nH]1 (some centres undefined)

Result ::
1. -6
2. 2
3. 1
